# Assay System: T1, PC7, Q16549
# T1 chain: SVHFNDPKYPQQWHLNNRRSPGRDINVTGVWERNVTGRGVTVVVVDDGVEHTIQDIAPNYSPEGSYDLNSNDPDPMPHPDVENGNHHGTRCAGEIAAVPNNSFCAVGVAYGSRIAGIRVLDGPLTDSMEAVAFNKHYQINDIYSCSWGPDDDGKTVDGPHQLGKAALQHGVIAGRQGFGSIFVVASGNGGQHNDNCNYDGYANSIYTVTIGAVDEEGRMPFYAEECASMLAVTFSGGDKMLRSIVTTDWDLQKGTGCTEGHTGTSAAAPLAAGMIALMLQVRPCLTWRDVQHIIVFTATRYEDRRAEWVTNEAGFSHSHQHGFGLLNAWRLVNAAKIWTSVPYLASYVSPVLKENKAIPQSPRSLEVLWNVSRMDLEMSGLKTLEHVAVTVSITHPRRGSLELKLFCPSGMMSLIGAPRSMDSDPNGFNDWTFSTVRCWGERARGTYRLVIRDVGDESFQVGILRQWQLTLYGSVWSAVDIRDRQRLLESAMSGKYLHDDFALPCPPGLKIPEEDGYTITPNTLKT
# Condition Info: modification not given
Metric Name: Ki (nM)

Binder: EQRLLKRAKR [PC7 propeptide fragment]
Metric Name: Ki
Numeric Result: 6
